Target: Cytochrome P450 2C19 (Homo sapiens) (UniProt P33261)
Sequence (P33261 whole entry, looked up): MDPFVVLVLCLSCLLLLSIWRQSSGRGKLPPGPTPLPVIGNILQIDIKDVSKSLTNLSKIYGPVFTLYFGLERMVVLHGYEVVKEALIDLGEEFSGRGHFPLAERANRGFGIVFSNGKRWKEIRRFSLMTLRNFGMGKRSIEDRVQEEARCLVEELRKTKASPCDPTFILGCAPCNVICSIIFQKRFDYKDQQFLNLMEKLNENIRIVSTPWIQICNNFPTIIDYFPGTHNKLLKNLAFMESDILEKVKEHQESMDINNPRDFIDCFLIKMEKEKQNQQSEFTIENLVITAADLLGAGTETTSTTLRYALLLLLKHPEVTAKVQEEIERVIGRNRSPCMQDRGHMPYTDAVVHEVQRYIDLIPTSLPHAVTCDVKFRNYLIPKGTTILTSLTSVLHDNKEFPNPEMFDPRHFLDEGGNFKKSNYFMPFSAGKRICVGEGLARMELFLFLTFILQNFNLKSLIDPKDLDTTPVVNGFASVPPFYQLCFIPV
Assay: Cytochrome P450 Family 2 Subfamily C Member 19 (CYP2C19) small molecule antagonists: luciferase reporter qHTS assay (AID 1671197); note: nearly all actives have a fitted effect of over 65% in size
Details: P450-Glo CYP2C19 enzyme, luciferin luminescence, 1 h; series mostly up to 115 µM
Inconclusive results are not listed. Activity calls are given as the source filed them. Calls come from the whole dose curve; as a rule, active = well fitted inhibition curve with a large enough effect in the repeat runs; inconclusive = weak or mixed curves; inactive = no such curve, though single readings can be large or run the other way.
I would appreciate it if you answered using one of these outcomes: true (1) (active), false (0) (inactive)

Problem: What was the test verdict on "BrCBr" ?
Result: false (0)

Problem: Query "Nc1ccc([N+](=O)[O-])cc1Cl" next
Result: false (0)

Problem: Query CC(C)CC(C)Nc1ccc(Nc2ccccc2)cc1 (stereo not given) next
Result: true (1)

Problem: Query "CCCCCCCCCBr" next
Result: false (0)

Problem: Query "ClC1=C(Cl)[C@]2(Cl)[C@H]3[C@H]([C@H]4C=C[C@H]3C4)[C@@]1(Cl)C2(Cl)Cl" next
Result: true (1)

Problem: Query "BrC(Br)C(Br)(Br)Br" next
Result: true (1)

Problem: Query "N#CCc1ccc(Cl)cc1" next
Result: true (1)

Problem: Query "CCc1ccccc1C" next
Result: false (0)

Problem: Query C[C@H]1CC[C@@H]2[C@@H](C)[C@H]3[C@H](C[C@H]4[C@@H]5CC=C6CC(O[C@@H]7O[C@H](CO)[C@H](O)[C@H](O[C@@H]8O[C@H](CO)[C@@H](O)[C@H](O)[C@H]8O)[C@H]7O[C@H]7O[C@@H](C)[C@H](O)[C@@H](O)[C@H]7O)CC[C@]6(C)[C@H]5CC[C@]34C)N2C1 (stereo not given in full) next
Result: false (0)

Problem: Query "Oc1ccc2ccc3cccc4ccc1c2c34" next
Result: true (1)

Problem: Query "CC1(C)CN=C(NN=C(/C=C/c2ccc(C(F)(F)F)cc2)/C=C/c2ccc(C(F)(F)F)cc2)NC1" next
Result: false (0)

Problem: Query "N#C/C=C/C#N" next
Result: true (1)

Problem: Query "Nc1ccccc1C(=O)Oc1ccc2ccccc2c1" next
Result: true (1)

Problem: Query "CCOP(=S)(OCC)SCS(=O)(=O)C(C)(C)C" next
Result: true (1)

Problem: Query "Fc1cccc(Cl)c1CCl" next
Result: false (0)

Problem: Query CCCCCCCCCCCCCCC(Br)C(=O)O (stereo not given) next
Result: false (0)
